- test method notes: CEETOX_H295R_CORTIC: CeeTox H295R High-throughput Steroidogenesis Assay for Corticosterone (CORTIC) (AID 2283437);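 note: corticosterone secreted into medium quantified by mass spectrometry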
- assay conditions: actives raise or lower the signal
- Procedure: CEETOX_H295R is a cell-based, multiplexed-readout assay that uses H295R, a human adrenal gland cell line, with measurements taken at 48 hours after chemical dosing in a 96-well plate.CEETOX_H295R_CORTIC is one of 23 assay component(s) measured or calculated from the CEETOX_H295R assay. […] This assay endpoint, CEETOX_H295R_CORTIC, was analyzed with bidirectional fitting relative to DMSO as the negative control and baseline of activity. […]
Activity calls are given as the source filed them. Rule for the calls: active = hit-call score of the fitted dose curve at least 0.9, where 1 is the maximum; inactive = score below 0.9.
Return exactly one item of TRUE (active), FALSE (inactive)

| substance smiles | classification |
| --- | --- |
| CC(C)(O)c1ccc(CNC(=O)c2cccnc2Oc2ccc(F)cc2)cc1 | FALSE |
| CCN(CC)CCOc1ccc(C(=C(Cl)c2ccccc2)c2ccccc2)cc1 | TRUE |
| Nc1nc(Cl)nc2c1ncn2[C@H]1C[C@H](O)[C@@H](CO)O1 | TRUE |
| Oc1ccccc1O | FALSE |
| CC1=C(C)S(=O)(=O)CCS1(=O)=O | FALSE |

Pending compound:
## Task So what was the verdict on `COc1ccc(C(=O)Nc2nc3ccccc3c(NCc3ccccc3)c2C#N)cc1` in this test?
## Result TRUE
